experimental system: ELK (3% skim milk powder solution)
method summary: ELISA, control well with ELK only, ~50 ng iMab per well, anti-VSV-HRP; urea purification
Consider the following binders; for each one, report its Absorbtion (450 nm) (absorbance at 450 nm).
Answer field: number only, no words.

Entry iMab100 (designed binder, not shown: small tags and cut ends) NVKLVEKGGNFVENDDDLKLTCRAEGYTIGPYCMGWFRQAPNDDSTNVATINMGGGITYYGDSVKERFDIRRDNASNTVTLSMDDLQPEDSAEYNCAGDSTIYASYYECGHGLSTGGYGYDSHYRGQGTDVTVSS ; Absorbtion (450 nm) (absorbance at 450 nm) = 0.04

Entry iMab111 (designed binder) NVKLVCKGGNFVENDDDLKLTCRAEGYTIGPYCMGWFRQAPNDDSTNVATINMGGGITYYGDSVKERFDIRRDNASNTVTLSMDDLQPEDSAEYNCAGDSTIYASYYECGHGLSTGGYGYDSHYRCQGTDVTVSS ; Absorbtion (450 nm) (absorbance at 450 nm) = 0.043

Entry iMab122 (designed binder, not shown: small tags and cut ends) NVKLVEKGGNFVENDDDLKLTCRASGRTFSSRTMGWFRQAPNDDSTNVATIRWNGGSTYYTNYGDSVKERFDIRVDQASNTVTLSMDDLQPEDSAEYNCAGTDIGDGWSGRYDYRGQGTDVTVSS ; Absorbtion (450 nm) (absorbance at 450 nm) = 0.051

Entry iMab116 (designed binder, not shown: small tags and cut ends) NVKLVEKGGNFVENDDDLKLTCRAEGYTIGPYCMGWFRQAPNDDSTNVATINMGGGITYYGDSVKERFDIRRDNASNTVTLSMDDLQPEDSAEYNGAGDSTIYGSYYECGHGLSTGGYGYDSHYRGQGTDVTVSS ; Absorbtion (450 nm) (absorbance at 450 nm) = 0.042
